B1: LINE1-full (parent)
chain: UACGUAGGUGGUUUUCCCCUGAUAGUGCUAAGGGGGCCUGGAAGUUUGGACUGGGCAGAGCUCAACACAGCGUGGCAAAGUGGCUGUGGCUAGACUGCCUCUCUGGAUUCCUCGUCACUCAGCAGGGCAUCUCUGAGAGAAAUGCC

# Variants of: B1
# EXPERIMENTAL_PROTOCOL: self-cleavage, relative activity (ratio to wild type); higher = more cleavage; in vitro, sequencing; the parent is a self-cleaving ribozyme
VALUE_TYPE: self-cleavage

alteration="G34C A140G" value_type=self-cleavage value=1.38
alteration="A42G U143C" value_type=self-cleavage value=1.3
alteration="A77G C113U" value_type=self-cleavage value=2.28
alteration="A22U U104C" value_type=self-cleavage value=1.31
alteration="G75C U134C" value_type=self-cleavage value=0.58
alteration="C76A U134A" value_type=self-cleavage value=0.84
alteration="A30C A67C" value_type=self-cleavage value=0.21
alteration="U14A A69U" value_type=self-cleavage value=0.06
alteration="A92G G114A" value_type=self-cleavage value=0.1
alteration="G4U A121U" value_type=self-cleavage value=1.23
alteration="U109G U143C" value_type=self-cleavage value=0.87
alteration="C19A U108C" value_type=self-cleavage value=1.46
alteration="A57G A138C" value_type=self-cleavage value=1.13
alteration="U13C G125U" value_type=self-cleavage value=1.4
alteration="U47A G86A" value_type=self-cleavage value=0.07
alteration="A124U U143A" value_type=self-cleavage value=1.75
alteration="U9C G36C" value_type=self-cleavage value=2.16
alteration="C110A U130C" value_type=self-cleavage value=1.04
alteration="U73C A121C" value_type=self-cleavage value=0.54
alteration="A107U A140G" value_type=self-cleavage value=1.58
alteration="U9C C113U" value_type=self-cleavage value=1.08
alteration="A31U U102C" value_type=self-cleavage value=1.05

The measured values listed here are drawn from the RNAGym collection of RNA variant scans (doi:10.7554/elife.90254).
